- assay system: P450 2C8 (Homo sapiens (Human), UniProt P10632)
- Sequence (P10632 whole entry): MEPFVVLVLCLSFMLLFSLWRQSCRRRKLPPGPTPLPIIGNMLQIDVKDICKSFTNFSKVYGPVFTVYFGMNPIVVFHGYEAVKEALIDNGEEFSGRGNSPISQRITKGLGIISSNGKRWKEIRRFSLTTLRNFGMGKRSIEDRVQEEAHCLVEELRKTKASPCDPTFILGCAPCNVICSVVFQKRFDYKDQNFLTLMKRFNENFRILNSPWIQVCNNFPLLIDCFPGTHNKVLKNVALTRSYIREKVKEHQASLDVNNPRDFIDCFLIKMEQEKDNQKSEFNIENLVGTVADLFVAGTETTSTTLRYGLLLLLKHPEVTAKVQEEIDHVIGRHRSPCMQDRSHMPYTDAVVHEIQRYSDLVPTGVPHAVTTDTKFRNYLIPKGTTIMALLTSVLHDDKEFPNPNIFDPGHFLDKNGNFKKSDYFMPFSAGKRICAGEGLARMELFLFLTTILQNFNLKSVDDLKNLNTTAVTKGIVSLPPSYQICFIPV
- method: Cytochrome P450 isoenzyme inhibition assay, deethylation of Amodiaquine
- Assay type: in vitro ADME
- experimental setup: (S)-isomers; human liver microsomes, 37° C.
pIC50: −log10 of the molar value.
value kind: pIC50

molecule: CN[C@@H](C)C(=O)Nc1ccc(-c2c(-c3ccc(C)nc3)nc3cc(C)ccn23)c(C#Cc2ccc3c(C)nccc3c2)n1 [(S)-6]
assay system: P450 2C8 (Homo sapiens (Human), UniProt P10632)
pIC50: 4.60
//
molecule: CN[C@@H](C)C(=O)Nc1ccc(-c2c(-c3ccc(OC)nc3)nc3cc(C)ccn23)c(C#Cc2ccc3c(C)nccc3c2)n1 [(S)-9]
assay system: P450 2C8 (Homo sapiens (Human), UniProt P10632)
pIC50: 4.82
//
molecule: CN[C@@H](C)C(=O)Nc1ccc(-c2c(-c3cccnc3C)nc3cc(C)ccn23)c(C#Cc2ccc3c(C)nccc3c2)n1 [(S)-5]
assay system: P450 2C8 (Homo sapiens (Human), UniProt P10632)
pIC50: 5.89
//
molecule: CN[C@@H](C)C(=O)Nc1ccc(-c2c(-c3ccnc(C)c3)nc3cc(C)ccn23)c(C#Cc2ccccc2)n1 [(S)-11]
assay system: P450 2C8 (Homo sapiens (Human), UniProt P10632)
pIC50: 4.82

A: CN[C@@H](C)C(=O)Nc1ccc(-c2c(-c3cccnc3OC)nc3cc(C)ccn23)c(C#Cc2ccc3c(C)nccc3c2)n1 [(S)-1]
B: CN[C@@H](C)C(=O)Nc1ccc(-c2c(-c3ccnc(OC)c3)nc3cc(C)ccn23)c(C#Cc2ccc3c(ccc(=O)n3C)c2)n1 [(S)-13]
Could you determine which record has the numerically smaller pIC50? Candidates: A and B State your choice using its label.
A
